Catalogue of fraction unbound values
Experiment: Protein binding in mouse plasma assessed as unbound fraction
Format: ADME, cell-free

- compound: "O=C(NCC1CCC(F)(F)CC1)c1c(Cl)ccc2nc(N3CC[C@H](F)C3)ccc12"
  fraction unbound: 0.03
- compound: "O=C(NCC1(O)CCCC(F)(F)C1)c1c(Cl)ccc2nc(N3CC[C@H](F)C3)ccc12 (some centres not stated)"
  fraction unbound: 0.079

----------
The following compounds are listed with their measured fraction unbound values.
Assay: Protein binding in mouse plasma
Format: ADME, cell-free
Details: read-out: PPB
property measured: fraction unbound

- compound: "O=C(NCC1(O)CCCC(F)(F)C1)c1c(Cl)ccc2nc(N3CC[C@H](F)C3)ccc12 (some centres not stated)"
  measured value: "0.03 to 0.1"
- compound: "O=C(NCC1CCC(F)(F)CC1)c1c(Cl)ccc2nc(N3CC[C@H](F)C3)ccc12"
  measured value: "0.03 to 0.1"

----------
Test: Unbound brain to plasma concentration ratio in mouse at 5 mg/kg, po
Assay type: ADME, organism-based
Details: read-out: K(p,uu,brain)
property measured: Kp uu

- compound: "O=C(NCC1(O)CCCC(F)(F)C1)c1c(Cl)ccc2nc(N3CC[C@H](F)C3)ccc12 (some centres not stated)"
  property measured: "Kp uu"
  measured value: 0.13
- compound: "O=C(NCC1CCC(F)(F)CC1)c1c(Cl)ccc2nc(N3CC[C@H](F)C3)ccc12"
  property measured: "Kp uu"
  measured value: 0.37

----------
Test system: MDR
Assay: Apparent permeability across apical to basolateral side in MDCK cells expressing MDR
Format: ADME, cell-based, Canis lupus familiaris
Conditions: dog, MDCK-MDR1
The reader will find reported Papp A→B values listed item by item below.

- compound: "O=C(NCC1CCC(F)(F)CC1)c1c(Cl)ccc2nc(N3CCC(NCCO)C3)ccc12 (centres undefined)"
  system name: "MDR"
  value units: "×10⁻⁶ cm/s"
  Papp A→B: 0.18
- compound: "O=C(NCC1CCC(F)(F)CC1)c1c(Cl)ccc2nc(N3CC[C@@H](F)C3)ccc12"
  system name: "MDR"
  value units: "×10⁻⁶ cm/s"
  Papp A→B: 18.4
- compound: "C[C@H]1CCC[C@@](O)(CNC(=O)c2c(Cl)ccc3nc(N4CC[C@@H](F)C4)ccc23)C1"
  system name: "MDR"
  value units: "×10⁻⁶ cm/s"
  Papp A→B: 8.9

----------
compounds and their reported half-life
Experiment: Terminal half life in mouse at 0.2 mg/kg, iv or 0.5 mg/kg, po
Type: ADME, organism-based
Settings: in vivo, read-out: beta t1/2 (converted)

- compound: "O=C(NCC1CCC(F)(F)CC1)c1c(Cl)ccc2nc(N3CC[C@H](F)C3)ccc12"
  value units: "min"
  half-life: 28.8
- compound: "O=C(NCC1(O)CCCC(F)(F)C1)c1c(Cl)ccc2nc(N3CC[C@H](F)C3)ccc12 (some centres not stated)"
  value units: "min"
  half-life: 25.8

----------
Target: P2X purinoceptor 7 (Homo sapiens)
Sequence (Q99572 whole entry): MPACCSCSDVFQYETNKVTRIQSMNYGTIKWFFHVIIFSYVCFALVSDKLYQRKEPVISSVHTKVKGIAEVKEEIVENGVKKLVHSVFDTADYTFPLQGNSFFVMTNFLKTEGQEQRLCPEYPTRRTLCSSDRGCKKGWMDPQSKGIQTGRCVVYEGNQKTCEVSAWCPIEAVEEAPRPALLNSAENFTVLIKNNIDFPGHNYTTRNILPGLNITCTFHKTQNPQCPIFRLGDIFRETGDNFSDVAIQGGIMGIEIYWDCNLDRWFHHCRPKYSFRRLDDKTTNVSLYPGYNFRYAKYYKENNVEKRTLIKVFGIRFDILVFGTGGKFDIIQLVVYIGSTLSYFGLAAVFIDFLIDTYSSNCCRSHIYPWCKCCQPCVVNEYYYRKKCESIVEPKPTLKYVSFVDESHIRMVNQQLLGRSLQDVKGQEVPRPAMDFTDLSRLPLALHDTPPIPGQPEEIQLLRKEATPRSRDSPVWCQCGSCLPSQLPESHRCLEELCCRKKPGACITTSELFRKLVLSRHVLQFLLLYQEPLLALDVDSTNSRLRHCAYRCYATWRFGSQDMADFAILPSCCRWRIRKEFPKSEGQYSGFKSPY
Assay: Antagonist activity at human P2X7 receptor expressed in HEK293 cells assessed as inhibition of BzATP-induced YO PRO dye uptake preincubated for 20 mins followed by YO PRO dye and BzATP addition measured after 30 mins by fluorescence assay
Format: cell-based
pIC50: −log10 of the molar value.
property measured: pIC50

- compound: "O=C(NCC1CCC(F)(F)CC1)c1c(Cl)ccc2nc(N3CC[C@@H](F)C3)ccc12"
  system name: "P2X purinoceptor 7 (Homo sapiens)"
  measured value: 7.72
- compound: "O=C(NCC1CCC(F)(F)CC1)c1c(Cl)ccc2nc(N3CCC(NCCO)C3)ccc12 (stereo not given)"
  system name: "P2X purinoceptor 7 (Homo sapiens)"
  measured value: 8.00
- compound: "O=C(NCC1CCC(F)(F)CC1)c1c(Cl)ccc2nc(NCCO)ccc12"
  system name: "P2X purinoceptor 7 (Homo sapiens)"
  measured value: 7.14
- compound: "O=C(NCC1CCC(F)(F)CC1)c1c(Cl)ccc2nc(N3CC[C@H](F)C3)ccc12"
  system name: "P2X purinoceptor 7 (Homo sapiens)"
  measured value: 8.09
- compound: "COCCNc1ccc2c(C(=O)NCC3CCC(F)(F)CC3)c(Cl)ccc2n1"
  system name: "P2X purinoceptor 7 (Homo sapiens)"
  measured value: 7.05
- compound: "CN(C)[C@H]1CCN(c2ccc3c(C(=O)NCC4CCC(F)(F)CC4)c(Cl)ccc3n2)C1"
  system name: "P2X purinoceptor 7 (Homo sapiens)"
  measured value: 7.30
- compound: "O=C(NCC1(O)CCCC(F)(F)C1)c1c(Cl)ccc2nc(N3CC[C@H](F)C3)ccc12 (stereo not given in full)"
  system name: "P2X purinoceptor 7 (Homo sapiens)"
  measured value: 7.74
- compound: "CN(C)[C@@H]1CCN(c2ccc3c(C(=O)NCC4CCC(F)(F)CC4)c(Cl)ccc3n2)C1"
  system name: "P2X purinoceptor 7 (Homo sapiens)"
  measured value: 7.57
- compound: "O=C(NCC1CCC(F)(F)CC1)c1c(Cl)ccc2nc(C3CCCC3)ccc12"
  system name: "P2X purinoceptor 7 (Homo sapiens)"
  measured value: 7.03
- compound: "O=C(NCC1CCC(F)(F)CC1)c1c(Cl)ccc2nc(C3=CCCC3)ccc12"
  system name: "P2X purinoceptor 7 (Homo sapiens)"
  measured value: 7.44
- compound: "C[C@@H]1CCC[C@@](O)(CNC(=O)c2c(Cl)ccc3nc(N4CCC(N(C)C)C4)ccc23)C1 (stereo not given in full)"
  system name: "P2X purinoceptor 7 (Homo sapiens)"
  measured value: 8.44
- compound: "O=C(NCC1CCC(F)(F)CC1)c1c(Cl)ccc2ncccc12"
  system name: "P2X purinoceptor 7 (Homo sapiens)"
  measured value: 6.64
- compound: "O=C(NCC1CCC(F)(F)CC1)c1c(Cl)ccc2nc(N3CCC(CCO)C3)ccc12 (stereo not given)"
  system name: "P2X purinoceptor 7 (Homo sapiens)"
  measured value: 7.33
- compound: "O=C(NC[C@]1(O)CCCC(F)(F)C1)c1c(Cl)ccc2nc(N3CC[C@@H](F)C3)ccc12"
  system name: "P2X purinoceptor 7 (Homo sapiens)"
  measured value: 7.72
- compound: "CC1(C)OB(C2=CCCC2)OC1(C)C"
  system name: "P2X purinoceptor 7 (Homo sapiens)"
  measured value: 7.51
- compound: "O=C(NCC1CCCC(F)(F)C1)c1c(Cl)ccc2nc(N3CC[C@@H](F)C3)ccc12 (stereo not given in full)"
  system name: "P2X purinoceptor 7 (Homo sapiens)"
  measured value: 8.31
- compound: "O=C(NCC1CCC(F)(F)CC1)c1c(Cl)ccc2nc(N3CCCC3)ccc12"
  system name: "P2X purinoceptor 7 (Homo sapiens)"
  measured value: 7.43
- compound: "C[C@@H]1CCC[C@@](O)(CNC(=O)c2c(Cl)ccc3nc(N4CC[C@@H](C(C)(C)O)C4)ccc23)C1"
  system name: "P2X purinoceptor 7 (Homo sapiens)"
  measured value: 7.85
- compound: "COCCOc1ccc2c(C(=O)NCC3CCC(F)(F)CC3)c(Cl)ccc2n1"
  system name: "P2X purinoceptor 7 (Homo sapiens)"
  measured value: 7.60
- compound: "C[C@H]1CCC[C@@](O)(CNC(=O)c2c(Cl)ccc3nc(N4CC[C@@H](F)C4)ccc23)C1"
  system name: "P2X purinoceptor 7 (Homo sapiens)"
  measured value: 8.35
